# credit: PubChem BioAssay (NCI)

- System: TK-10 renal
- TEST DESCRIPTION: NCI-60 one-dose screen, 48 h (100 = growth as untreated, 0 = no growth, -100 = all killed)
- TEST PARAMETERS: 10 µM unless noted
About 83,000 compounds went through this panel and 20% of them were active in at least one assay; those are over-represented in the sample as a whole.
Checkbox rule: growth lower than 70% = 1 (yes); growth not lower than 70% = 0 (no).

Please review the following examples before continuing.
# COMPOUND, GROUP
rows = [
    ("O=C(O)CC1CCN(c2ccc3nnc(Cl)n3n2)CC1", "0 (no)"),
    ("Nc1ncc(-c2ccc3ncnc(NCc4ccccc4)c3c2)cn1", "1 (yes)"),
]

Request: Would you kindly verify if growth of Cc1ccc(NC(=O)Nc2nc3ccc([N+](=O)[O-])cc3s2)cc1 is strictly less than 70%?
Response: 1 (yes)

###

- Test system: LOX IMVI melanoma
- TEST DESCRIPTION: NCI-60 one-dose screen, 48 h (100 = growth as untreated, 0 = no growth, -100 = all killed)
- TEST PARAMETERS: 10 µM unless noted
Compounds without any hit were thinned out: in the full panel of roughly 83,000, 20% have a hit.
Checkbox rule: growth lower than 50% = true; growth not lower than 50% = false.

Please review the following examples before continuing.
# MOLECULAR STRING, GROUP
records = [
    ("COc1ccc([C@H]2C(=O)N(c3cc(OC)c(OC)c(OC)c3)[C@@H]2c2ccc(OC)c(O)c2)cc1", "true"),
    ("CC1=C(C)C(=O)C(Nc2cccc(C(=O)OC(C)(C)C)c2)=CC1=O", "true"),
    ("Cc1ccccc1N1CCN(C2=C(Cl)C(=O)c3ncccc3C2=O)CC1", "true"),
    ("O=[N+]([O-])c1ccc(NC(=S)NNC(=S)Nc2ccc(F)cc2)cc1", "false"),
    ("CCc1cc(OC(=O)N2CCC(N3CCCCC3)CC2)ccc1Nc1cc(-c2ccc(-n3cccn3)cc2)[nH]n1", "true"),
]

Request: Would you kindly verify if growth of N#C/C(=C\c1ccc(-c2ccc(Cl)c(Cl)c2)o1)C(=O)Nc1ncc(Cc2ccc(Cl)cc2)s1 is strictly less than 50%?
Response: true

Request: Would you kindly verify if growth of O=C(COc1ccc(/C=C2\C(=O)Nc3ccc(F)cc32)cc1)Nc1ccccc1 is strictly less than 50%?
Response: false

###

- Tested on: SF-295 CNS
- TEST DESCRIPTION: NCI-60 one-dose screen, 48 h (100 = growth as untreated, 0 = no growth, -100 = all killed)
- TEST PARAMETERS: 10 µM unless noted
- Method: Cells are grown in 96 well plates and exposed to the test compound for 48 hours. Compounds are tested at a single concentration, which is 10^-5 M for most compounds. The reported endpoint is percent growth (GI% or GIPRCNT), where numbers from 0 - 100% represent growth inhibition, and numbers from -100% - 0 represent cell death. For example, a value of 40 represents 60% growth inhibition. A value of 0 means no net growth occurred over the course of the experiment. […]
This is part of a sample that, as a whole, favours compounds with a hit. Of some 83,000 tested, about 20% had one in any assay.
Each entry below carries its recorded growth.
Lab book: enter the figure in %, no units written.

As a guide, the following entries are already answered.
# MOLECULE, OBSERVED VALUE
data = [
    ("Cc1ccc(C(=O)Nc2ccc(CNCCN3CCOCC3)c(C(F)(F)F)c2)cc1C#Cc1cnc2cccnn12", -24.7),
    ("O=C(COc1ccc(/C=C2\\C(=O)Nc3ccc(F)cc32)cc1)Nc1ccccc1", 105),
    ("NC1[C@H]2CN(c3cnc(C(=O)Nc4cc(F)cc5cccnc45)cn3)C[C@@H]12 (stereo partly specified)", 96.4),
    ("CN1CCN(c2ccc(Nc3nc(NCCNS(=O)(=O)c4ccc(Cl)cc4)c4sccc4n3)cc2)CC1", 97.9),
]

Note to self: growth recorded for CCOC(=O)c1c(NC(=O)c2cccc(C(F)(F)F)c2)sc2c1CCC(=O)C2 was 24.3

Note to self: growth recorded for CN1CCN(Cc2ccc(/C=N/Nc3ccnc4cc(Cl)ccc34)cc2)CC1 was 90

Note to self: growth recorded for CC1=C(C)C(=O)C(Nc2cccc(C)c2)=C(Br)C1=O was 100

Note to self: growth recorded for C#CCOc1ccccc1C(OC(=O)c1ccccc1)C(=O)NC(C)(C)C(C)(C)C (stereo unspecified) was 70.3

Note to self: growth recorded for O=C1C(SCc2ccccc2)=C(Cl)CN1c1ccc(Cl)cc1 was 102

Note to self: growth recorded for Oc1[nH]c2ccc(Cl)cc2c1N=Nc1nc(N=Nc2c(O)[nH]c3ccc(Cl)cc23)nc(N2CCCCC2)n1 was 24.3

Note to self: growth recorded for C/C(=N\NC(=O)Nc1ccccc1)c1nnn(-c2ccc([N+](=O)[O-])cc2)c1C was 108

Note to self: growth recorded for CCN(CC)CCOc1ccc(C(=C(c2ccccc2)C2CCCC2)c2ccc(OCCN(CC)CC)cc2)cc1 was 60.6

Note to self: growth recorded for NCCNC(=O)c1cccc(COc2ccccc2NC(=O)c2cc(Cl)c(Cl)[nH]2)c1 was 105

Note to self: growth recorded for O=S1SC(c2ccccc2)=NN1c1cc(F)cc(F)c1 (stereo unspecified) was 52.1

Note to self: growth recorded for CCN1CCN(c2ccc(NC(=O)Nc3ccc4c(ccn4-c4ccnc(C(=O)NC)c4)c3)cc2C(F)(F)F)CC1 was -47.1

Note to self: growth recorded for CC(=C(c1ccc(OCCN(C)C)cc1)c1ccc(OCCN(C)C)cc1)c1ccc(Cl)cc1 was -78.1

###

- System: MDA-MB-435 melanoma
- TEST DESCRIPTION: NCI-60 one-dose screen, 48 h (100 = growth as untreated, 0 = no growth, -100 = all killed)
- TEST PARAMETERS: 10 µM unless noted
This is part of a sample that, as a whole, favours compounds with a hit. Of some 83,000 tested, about 20% had one in any assay.
Use 30% as the dividing line for growth, with the line itself on the yes (1) side and lower values as no (0).

Please review the following examples before continuing.
# MOLECULE, GROUP
measured = [
    ("Clc1cccc(/C=N/Nc2nc(N/N=C/c3cccc(Cl)c3)nc(N3CCOCC3)n2)c1", "yes (1)"),
    ("COc1ccc(/C(=N\\N=C(N)N)c2ccc(Cl)cc2)cc1OC", "yes (1)"),
    ("CC(C)NC(=O)c1cc(-c2ccc(NC(=O)Nc3ccc(F)c(C(F)(F)F)c3)cc2)nc2cccnc12", "yes (1)"),
    ("O=C(Nc1ccc(Cl)c(C(F)(F)F)c1)Nc1ccc2c(ccn2C(=O)c2cccc(F)c2)c1", "yes (1)"),
]

Now take the following molecule into account.
Request: Reported growth at or above 30%? CC1CC(=O)C2=C(C1)Nc1ccc(Br)cc1CC2c1c[nH]c2ccc(Br)cc12 (stereo not given)
Response: no (0)

###

- Test system: 786-0 renal
- TEST DESCRIPTION: NCI-60 one-dose screen, 48 h (100 = growth as untreated, 0 = no growth, -100 = all killed)
- TEST PARAMETERS: 10 µM unless noted
Compounds without any hit were thinned out: in the full panel of roughly 83,000, 20% have a hit.
MEASUREMENT TYPE: growth (%)
Lab book: enter the figure in %, no units written.

# MOLECULE, OBSERVED VALUE
records = [
    ("COc1ccc(-c2cc(-c3ccc(N(C)C)cc3)n3c(n2)nc2ccccc23)cc1", 42.8),
    ("CCN(CC)c1ccc(/C=N/NC(=O)c2ccc(S(N)(=O)=O)cc2)c(O)c1", 4.11),
    ("C/C(=N\\NC(=O)Nc1ccccc1)c1nnn(-c2ccc([N+](=O)[O-])cc2)c1C", 102),
]

# value of growth, 786-0 renal, item Cc1csc(/N=C(N)/N=C(\N)c2cccc(Br)c2)n1 = 97.3

# value of growth, 786-0 renal, item O=c1[nH][nH]c(-c2ccc(F)cc2)c1-c1nc2ccccc2s1 = 107

# value of growth, 786-0 renal, item O=c1nc(Nc2ccc([N+](=O)[O-])cc2O)sc2ccccc12 = 37.7

# value of growth, 786-0 renal, item O=[N+]([O-])c1ccc(NC(=S)NNC(=S)Nc2ccc(Br)cc2)cc1 = 99.2

# value of growth, 786-0 renal, item COc1ccc2c(c1)c(-c1nnc(N)nc1-c1c[nH]c3ccc(F)cc13)cn2C = 46

###

- Test system: NCI-H226 lung
- TEST DESCRIPTION: NCI-60 one-dose screen, 48 h (100 = growth as untreated, 0 = no growth, -100 = all killed)
- TEST PARAMETERS: 10 µM unless noted
Compounds without any hit were thinned out: in the full panel of roughly 83,000, 20% have a hit.
Each entry below carries its recorded growth.
Lab book: enter the figure in %, no units written.

# MOLECULAR STRING, growth (%)
data = [
    ("Cn1c(SCC(=O)c2ccc(Br)cc2)nc2ccccc2c1=O", 90.7),
    ("O=C1Nc2ccccc2/C1=C/c1ccc(OCC(=O)c2ccccc2)cc1", 89),
]

Note to self: growth recorded for N#CC1=C2NCCCNc3oc(nc3C#N)Cc3ccccc3CC(=N1)O2 was 92.3
